# Tested on: β-H-tococcus
# assay: MBC, agar plating of dilutions without growth
# Assay type: cell-based
# condition notes: 99.9% bactericidal, read-out: Minimal bactericidal concentration (MBC)
Provide the recorded MBC for the entries that follow.
Give bare numbers, in µg/mL.

Would you mind giving MBC for every molecule in the list below?
1. C[N+](CCO)(CCO)CCCCCCCCCCSc1nnc(-c2ccc(F)cc2)o1 [Compound 5c]
2. C[N+](CCO)(CCO)CCCCCCCCCCCCSc1nnc(-c2ccccc2)o1 [Compound 2, reference compound]
3. C[N+](CCO)(CCO)CCCCCCCCCCCCSc1nnc(-c2ccc(F)cc2)o1 [Compound 5d]
4. C[N+](CCO)(CCO)CCCCCCCCCCCCSc1nnc(-c2ccc(C(F)(F)F)cc2)o1.[Br-] [Compound 6d]
5. [H]/N=C(\N/C(=N/[H])NCCCCCCNC(=N)NC(=N)Nc1ccc(Cl)cc1)Nc1ccc(Cl)cc1 [CA, chlorhexidine acetate, reference compound]
6. C[N+](CCO)(CCO)CCCCCCCCSc1nnc(-c2ccc(C(F)(F)F)cc2)o1 [Compound 6b]

[12.5, 6.25, 6.25, 3.12, 3.12, 12.5]

---

# assay: Haemolysis assay
# Type: cell-based
# condition notes: human red blood cells (erythrocyte suspension), 25.00 μg/mL, 1 h at 37 ℃, read-out: Haemolysis rate
Task for the reader: assign each of the following molecules its reported hemolysis at 1 h, 25 μg/mL.
Express your answer as a number followed by its unit.

Here's what some known entries look like.
Annotate the molecule [H]/N=C(\N/C(=N/[H])NCCCCCCNC(=N)NC(=N)Nc1ccc(Cl)cc1)Nc1ccc(Cl)cc1 [CA, chlorhexidine acetate, reference compound] with its measured hemolysis at 1 h, 25 μg/mL. 5.29%

Check the records and state hemolysis at 1 h, 25 μg/mL for C[N+](CCO)(CCO)CCCCCCCCCCSc1nnc(-c2ccc(C(F)(F)F)cc2)o1.[Br-] 0.67%

Name the recorded hemolysis at 1 h, 25 μg/mL of the molecule listed here: C[N+](CCO)(CCO)CCCCCCSc1nnc(-c2ccc(C(F)(F)F)cc2)o1 0.51%

Please give the documented hemolysis at 1 h, 25 μg/mL of C[N+](CCO)(CCO)CCCCCCCCCCCCSc1nnc(-c2ccc(F)cc2)o1 2.43%

Consider the molecule C[N+](CCO)(CCO)CCCCCCSc1nnc(-c2ccc(F)cc2)o1 . State its measured hemolysis at 1 h, 25 μg/mL. 1.37%

Next up:
Return reported hemolysis at 1 h, 25 μg/mL. Input molecule: C[N+](CCO)(CCO)CCCCCCCCCCCCSc1nnc(-c2ccc(C(F)(F)F)cc2)o1.[Br-] 2.02%

---

Assignment: determine reported melting point for the given molecules.
Counter-ions that a name gives are not always drawn.

Respond only with melting point recorded for C[N+](CCO)(CCO)CCCCCCCCSc1nc2ccccc2s1 (as salt: bromide) [Compound 13b] 87 to 89 °C

Query melting point for C[N+](CCO)(CCO)CCCCCCSc1nnc(-c2ccc(C(F)(F)F)cc2)o1 (as salt: bromide) 93 to 94 °C

Note melting point for the molecule shown: CC(C)(C)c1ccc(-c2nnc(SCCCCCC[N+](C)(CCO)CCO)o2)cc1 (as salt: bromide) 78 to 80 °C

Determine its reported melting point: Cc1nnc(SCCCCCC[N+](C)(CCO)CCO)s1 (as salt: bromide) [Compound 16a] 56 to 57 °C

Hello, please tell me recorded melting point for this one: C[N+](CCO)(CCO)CCCCCCCCSc1nnc(-c2ccc(C(F)(F)F)cc2)o1 (as salt: bromide) 78 to 80 °C

Would you mind giving melting point for every molecule in the list below?
1. Cc1nnc(SCCCCCCCCCCCC[N+](C)(CCO)CCO)s1 (as salt: bromide) [Compound 16d]
2. CC(C)(C)c1ccc(-c2nnc(SCCCCCCCCCC[N+](C)(CCO)CCO)o2)cc1 (as salt: bromide)

["95 to 96 °C", "78 to 80 °C"]

The reported measurements were obtained from paper PMC6010013.
